Test system: SNB-75 CNS
protocol-text: NCI tumour cell line growth inhibition, 48 h; in the data active = GI50 below about 0.43 µM; inactive = the rest
Possible outcomes: active, inactive

compound	group-label
Nc1ncnc2[nH]ncc12	inactive
Cc1ccc(-c2cc(-c3ccc(C)cc3)nc(NCCNc3ccnc4cc(Cl)ccc34)n2)cc1	inactive
C/C(=N\Nc1ccc2ccccc2n1)c1ccccn1	active
CN1CCN(Cc2ccc(NC(=O)c3cncc(C#Cc4cnc(N)c5ccncc45)c3)cc2C(F)(F)F)CC1	inactive
O=c1[nH]c2ccccc2nc1-c1c[nH]c2ccccc12	inactive
Cc1ccc(C2=NOC3=c4ccccc4=CSC3=C2c2ccc([N+](=O)[O-])cc2)cc1	inactive
Cc1ccc(NC(=O)/C=C/c2ccccc2)c(C(N)=O)c1	inactive
O=C(C1CCCCC1)[C@@H]1[C@]2(C(=O)NC3CCCCC32)[C@@H]2CCCN2[C@@]12C(=O)NC1CCC(Cl)CC12 (stereo partly drawn)	inactive
COc1cc2c(cc1OCCCCOc1cc3c(cc1OC)C(=O)N1CCC[C@H]1CN3)N=C[C@@H]1CCCN1C2=O	inactive
O=C1c2ccccc2-c2c1c1ccc([N+](=O)[O-])cc1c(=O)n2CCCBr	inactive
COc1ccc(-c2n[nH]nc2-c2cc(OC)c3c(c2OC)OCO3)cc1	inactive
Clc1cc(Cl)c(OCC#CI)cc1Cl	inactive
N/C(=N\N=C\c1ccc(-c2ccccc2)cc1)N[N+](=O)[O-]	inactive
CN(C)c1ccc2c(c1)Sc1cc(N(C)C)ccc1N2C(=O)c1ccccc1	inactive
O=C1c2c(c3c4ccccc4[nH]c3c3ccc4ccccc4c23)C(=O)N1CCN1CCCCC1	inactive
C=CC(=O)N(C)[C@H]1C[C@H]2OC(C)(C1OC)n1c3ccccc3c3c4c(c5c6ccccc6n2c5c31)C(=O)NC4 (stereo partly drawn)	active
C=CC(=O)Nc1cccc(C)c1Nc1cc(-c2cccnc2Cc2c(C)c(OC)cc(OC)c2C)ncn1	inactive
N#C/C(=C\c1c(-c2ccccc2)[nH]c2ccccc12)S(=O)(=O)c1ccccc1	inactive
